Test system: MOLT-4
assay text: Inhibition of human T-lymphocyte cell line (Molt4/C8) growth
Assay type: functional, cell-based
pIC50: −log10 of the molar value.
measure: pIC50

Use these answered entries as a reference point.
{"compound": "CC(C)C(NC(=O)NO)C(=O)NC1CCCCC1 (centres undefined)", "experimental system": "MOLT-4", "measure": "pIC50", "result": "< 4.00"}
{"compound": "CC(C)C(NC(=O)n1nnc2ccccc21)C(=O)NC1CCCC1 (centres undefined)", "experimental system": "MOLT-4", "measure": "pIC50", "result": "< 3.70"}
{"compound": "O=C(NO)NC(C(=O)Nc1ccccc1)c1ccccc1 (centres undefined)", "experimental system": "MOLT-4", "measure": "pIC50", "result": "< 3.70"}

stdin: Which pIC50 value belongs to O=C1NC(c2ccccc2)C(=O)N1Cc1ccccc1 (centres undefined) ?
stdout: < 3.70

stdin: Which pIC50 value belongs to CCC(C)C1NC(=O)N(C2CCCC2)C1=O (centres undefined) ?
stdout: < 3.70

stdin: Which pIC50 value belongs to O=C1NC(c2ccccc2)C(=O)N1C1CCCC1 (centres undefined) ?
stdout: < 3.70

----------
System: MOLT-4
assay text: Inhibition of human T-lymphocyte cell line (Molt4/C8) growth
Type: functional, cell-based
pIC50: −log10 of the molar value.
The following compounds are listed with their measured pIC50 values.

stdin: Which pIC50 value belongs to CCC(C)C(NC(=O)NO)C(=O)NC1CCCC1 (stereo not drawn) ?
stdout: < 4.00

stdin: Which pIC50 value belongs to CCC(C)C1NC(=O)N(Cc2ccccc2)C1=O (stereo not drawn) ?
stdout: < 3.70

stdin: Which pIC50 value belongs to CCC(C)C1NC(=O)N(C2CCCCC2)C1=O (stereo not drawn) ?
stdout: < 3.70
